Examples of compounds with documented z-score follow.
TEST DESCRIPTION: E. coli growth modulation, two-sided OD650, primary screen, E. coli filamentation project, strain DRC41, 24 h (AID 1093);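 note: MC1000 strain lacking acrAB efflux and sulA so SOS filamentation is blocked; test concentration not given here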
CONDITION DESCRIPTION: OD650, 24 h, higher = more signal, called active from +8 up or from −8 down
READOUT NAME: z-score

• CO[C@H]1O[C@H](CO)[C@@H](OC(=O)Nc2ccc3c(c2)OCO3)[C@H](OC(=O)Nc2ccccc2)[C@@H]1OC(=O)Nc1ccccc1 = -1.17
• COCCOC(=O)N1C(=O)[C@@]2(c3ccccc31)[C@H](C(=O)N1CCc3cc(OC)c(OC)cc3C1)[C@H]1C(=O)O[C@H](c3ccccc3)[C@H](c3ccccc3)N1[C@@H]2c1ccccc1OCCO = 2.8
• COc1ccc(C(=O)Nc2ccc(CN3C(=O)[C@]4(O[C@H](CCn5cc(CCO)nn5)[C@@H]([Si](C)(C)c5ccc(OC)cc5)[C@@H]4C)c4ccccc43)cc2)cc1 = 1.07
• CO[C@H]1COC(=O)[C@@H](Cc2ccccc2)NC(=O)[C@@H](C)COC(=O)CC=C[C@@H]1C = 0.395
• [N-]=[N+]=NCc1ccccc1C[C@]1(C(N)=O)N=C(c2ccc(OCCCO)cc2)O[C@H]1c1ccccc1CN=[N+]=[N-] = -0.0236
• NC(=O)NCC#Cc1ccc2c(c1)[C@]1(C(=O)N2)[C@H](c2ccccc2OCCO)N2[C@H](c3ccccc3)[C@H](c3ccccc3)OC(=O)[C@H]2[C@@H]1C(=O)N1CCN(c2ncccn2)CC1 = 2.9
• O=C1O[C@@H](c2ccccc2)[C@@H](c2ccccc2)N2[C@@H](c3ccc(O)cc3)[C@]3(C(=O)Nc4ccc(C#CC5(O)CCCCCC5)cc43)[C@@H](C(=O)Nc3nc4ccccc4s3)[C@H]12 = 2.03
• C=C(C(=O)CC[C@H](OC(=O)c1ccccc1-c1ccccc1C(=O)O)c1ccc(CO)o1)C(C)C = -0.309
• CC(C)[Si](OCCCNS(=O)(=O)c1ccc(Br)cc1)(C(C)C)C(C)C = 3.1
• Cc1ccccc1C(O)C1C=CC2C(=O)N(c3ccccc3)C(=O)C2N1Nc1ccc(C#N)cc1 (centres undefined) = 0.478
• CC(=O)NCCCC[C@@H]1NC(=O)[C@H]2C[C@@H](C(=O)NCCCCCCN(C)C)[C@@H](c3ccc(O)cc3)N2C1=O = -0.179
• COc1ccc([Si](C)(C)[C@@H]2[C@@H](CC(=O)N(CCO)Cc3ccccc3)O[C@]3(C(=O)N(Cc4cccc(N5CCC5=O)c4)c4ccccc43)[C@H]2C)cc1 = 1.48
• CCC(=O)[C@]12O[C@@]3([C@@H]4C(=O)OCC[C@@H]41)N(CC)C(C)=C(C(=O)OC)[C@@H](c1ccccc1)N3C2=O = 0.421
• CCOC(=O)C1=CCC(c2cccc3ccccc23)N(S(=O)(=O)c2ccc(C)cc2)C1 (centres undefined) = -0.461

---

TEST DESCRIPTION: RPMI8226 myeloma cell viability, profiling panel, resazurin fluorescence, basal, 24 h, PK04 Diversity Set (AID 1180);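 note: RPMI8826 multiple myeloma cell line at 5000 cells per well; test concentration not given here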
CONDITION DESCRIPTION: higher = more signal
READOUT NAME: z-score

• CCOC(=O)C1=CCC(c2cccc3ccccc23)N(S(=O)(=O)c2ccc(C)cc2)C1 (stereo not drawn) = -3.43
• CCOC(=O)C[C@H]1[C@H](OC(=O)Cc2ccc3c(c2)OCO3)[C@@H](NC(=O)c2ccc3ccccc3c2)c2cc(OCCCO)ccc2N1C(=O)Cc1ccc(OC)cc1 = 0.202
• COC(=O)C(CC#Cc1ccc2c(c1)[C@]1(C(=O)N2)[C@H](C(=O)N2CCCCCCC2)[C@H]2C(=O)O[C@H](c3ccccc3)[C@H](c3ccccc3)N2[C@@H]1c1ccc(O)cc1)C(=O)OC = 0.402
• C[C@@H]1CC[C@H]2C(=O)N3CCC[C@H]3C(=O)N2[C@H]1c1ccc(Br)cc1 = 0.506
• COC(=O)[C@@]1(Cc2ccc(OC)cc2)[C@H]2c3cc(C(=O)N(C)C)n(CCc4ccc(OC)c(Br)c4)c3C[C@H]2CN1C(=O)c1ccccc1 = -3.63
• O=C1NC(=O)C2C1C=CC(C(O)C=Cc1ccc([N+](=O)[O-])cc1)N2Nc1ccccn1 (stereo not drawn) = -0.742
• N#Cc1ccc(NN2C(C(O)c3ccc(I)cc3)C=CC3C(=O)N(c4ccccc4)C(=O)C32)cc1 (stereo not drawn) = -0.328
• CCCC=C(CCC)[C@@H](NC(=O)c1ccc(C(F)(F)F)cc1)c1ccccc1 = -0.996
• COc1ccc(-c2cc3c(c(-c4ccccc4)n2)[Si](C(C)C)(C(C)C)O[C@H]3c2ccccc2)cn1 = 0.184
• CO[C@H]1O[C@H](CO)[C@@H](OC(=O)Nc2ccccc2)[C@H](OC(=O)Nc2ccc3c(c2)OCO3)[C@@H]1OC(=O)Nc1ccc2c(c1)OCO2 = -0.365
• COC(=O)[C@@]1(Cc2ccccc2N=[N+]=[N-])N=C(c2ccc(OCCCO)cc2)O[C@H]1c1ccccc1CN=[N+]=[N-] = -7
• C[C@@H]1CC[C@H]2C(=O)N3[C@@H](CC[C@@H](C)[C@@H]3c3cccc(N4CCOCC4)c3)C(=O)N2[C@H]1c1cccc(N2CCOCC2)c1 = 1.39
• C=C(CCCC)C(=O)CC[C@@H](OC(=O)c1cccnc1)c1cccc(OCCO)c1 = -4.13
• C=CC[C@]1(C(N)=O)N=C(c2ccc(OCCCO)cc2)O[C@H]1c1ccccc1CN=[N+]=[N-] = 1.1
• O=C1C[C@@](C(=O)NC2CC2)(c2ccc([N+](=O)[O-])cc2)[C@@H](c2ccc(CO)cc2I)N1CC12CC3CC(CC(C3)C1)C2 = -5.45
• COc1ccc([Si](C)(C)[C@H]2[C@H](CC(=O)N3Cc4ccccc4C[C@H]3CO)O[C@@]3(C(=O)N(Cc4cccc(N5CCOC5=O)c4)c4ccccc43)[C@@H]2C)cc1 = -1.75
• CC(=O)NCCCC[C@@H]1NC(=O)[C@@H]2C[C@H](C(=O)NCCCCCCN(C)C)[C@H](c3ccc(O)cc3)N2C1=O = 0.912
• C=CCC(OC(C)=O)[C@@H]1[C@@H](N(Cc2cc3ccccc3o2)C(=O)c2ccc(C)cc2)c2cc(OCCCO)ccc2N1C(=O)c1ccc2ccccc2n1 (stereo partly drawn) = 0.585
• O=C/C=C/c1ccc(/C=C/c2ccccc2)cc1 = -3.21
• O=C1O[C@H](c2ccccc2)[C@H](c2ccccc2)N2[C@H]1[C@@H](C(=O)NC[C@H](O)c1ccccc1)[C@]1(C(=O)Nc3ccc(C#CC4(O)CCCCCC4)cc31)[C@H]2c1ccc(OCCO)cc1 = 0.931
• C=C(C(=O)CC[C@H](OC(=O)c1ccccc1-c1ccccc1C(=O)O)c1ccc(CO)o1)C(C)C = 0.951
• [N-]=[N+]=Nc1ccccc1C[C@@]1(C(=O)N2CCOCC2)N=C(c2ccc(OCCCO)cc2)O[C@@H]1c1ccccc1N=[N+]=[N-] = -3.91
• NC(=O)[C@H]1[C@@H]2C(=O)O[C@@H](c3ccccc3)[C@@H](c3ccccc3)N2[C@@H](c2ccc(O)cc2)[C@]12C(=O)Nc1ccc(C#CCCO)cc12 = -0.616
• CCN1C(C)=C(C(=O)OC)[C@@H](c2ccccc2)N2C(=O)[C@](O)(C(=O)OC)[C@@H](c3ccccc3)C(C(=O)c3ccccc3)=C12 = 1.57
• CC(C)CNC(=O)[C@@]1(C)c2ccccc2C(=O)N(Cc2ccc(OC(F)(F)F)cc2)[C@H]1c1ccc(CO)cc1 = 1.75
• CCOC(=O)C1=CC[C@@H](c2ccc(-c3ccc(OCc4ccccc4)cc3)c(OC)c2)N(S(=O)(=O)c2ccc(C)cc2)[C@H]1c1ccccc1 = 0.894
• CO[C@@H]1COC(=O)[C@@H]2CCCN2C(=O)CC=C[C@@H](C)[C@H](OC)COC(=O)[C@@H]2CCCN2C(=O)CC=C[C@H]1C = 0.0475
• CC(=O)NCCCC[C@@H]1NC(=O)[C@H]2C[C@@H](C(=O)NCCCCCCN(C)C)[C@@H](c3ccc(O)cc3)N2C1=O = -1.28

---

TEST DESCRIPTION: small-molecule microarray binders of probe aXIP, primary screen, biochemical, NeuroSMM set, 635/667 nm fluorescence (AID 1119);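 note: probe is the protein aXip251-270 applied at 1 µg/mL to compound-printed slides; binding of probe to printed compounds measured as 667 nm fluorescence plus signal to noise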
CONDITION DESCRIPTION: higher = more signal, called active from +8 up or from −8 down
Note to self: class = bucket of composite Z-score, per 0 (below -0.07), 1 (-0.07 to below 0.2), 2 (0.2 or more)

• COc1ccc([Si](C)(C)[C@H]2[C@H](CCO)O[C@@]3(C(=O)N(Cc4ccccc4)c4ccc(N5C(=O)c6cccc7cccc5c67)cc43)[C@@H]2C)cc1 = 0
• C[C@H]1COC(=O)[C@H](Cc2ccccc2)NC(=O)[C@@H](C)COC(=O)[C@H](Cc2ccccc2)NC1=O = 1
• O=C1C2C=CC(C(O)Cc3ccccc3)N(Nc3ccc([N+](=O)[O-])cc3)C2C(=O)N1c1ccccc1 (stereo not given) = 0
• O=C/C=C/c1ccc(/C=C/c2ccccc2)cc1 = 0
• O=C(NCC(F)(F)F)[C@@H]1c2ccccc2C(=O)N(Cc2ccccc2Cl)[C@H]1c1ccc(CO)cc1 = 0
• COC(=O)[C@@]1(Cc2ccc(OC)cc2)[C@H]2c3cc(C(=O)N(C)C)n(Cc4ccc(C)c(F)c4F)c3C[C@H]2CN1C(=O)c1ccccc1 = 1
• Cc1ccc([C@@H]2CC=C(C(=O)O)[C@H](c3ccccc3)N2S(=O)(=O)c2ccc(C)cc2)cc1 = 2
• CCC1=C2CN(Cc3ccccc3Br)[C@@H]([C@@H](O)Cc3ccccc3)C2C=CCC1 (stereo not given in full) = 2
• C=CC[C@]1(C(N)=O)N=C(c2ccc(OCCCO)cc2)O[C@H]1c1ccccc1CN=[N+]=[N-] = 2
• CO[C@]12C=C(Br)[C@@H](C[C@@H]1c1ccccc1)[C@@]1(CO1)C2=O = 1
• COC(=O)C[C@H]1O[C@]2(C(=O)N(C)c3ccccc32)[C@@H](C)[C@@H]1[Si](C)(C)c1ccc(OC)cc1 = 0
• CN(C)CCCC[C@@H]1NC(=O)[C@@H]2C[C@H](C(=O)NCCCCCNC(=O)CS)[C@H](c3ccc(O)cc3)N2C1=O = 1
• COC(=O)Cn1c(C(=O)N2CCCC2)cc2c1C[C@H]1CN(C(=O)c3ccccc3)[C@@](Cc3ccc(OC)cc3)(C(=O)OC)[C@@H]21 = 2
• C=CCC(OC(C)=O)[C@@H]1[C@@H](N(Cc2ccc(-c3cccc(C(F)(F)F)c3)o2)C(=O)Cc2ccc(F)cc2)c2cc(OCCCO)ccc2N1C(=O)c1ccc(-c2ccccc2)cc1 (stereo not given in full) = 1
• N#Cc1ccc(NN2C(C(O)c3ccc(I)cc3)C=CC3C(=O)N(c4ccccc4)C(=O)C32)cc1 (stereo not given) = 1
• CO[C@H]1COC(=O)[C@H](C)COC(=O)[C@H](Cc2ccccc2)NC(=O)CC=C[C@H]1C = 2
• C=CC[C@]1(C(=O)N2CCCCC2)N=C(c2ccc(OCCCO)cc2)O[C@H]1c1ccccc1N=[N+]=[N-] = 1
• CCOC(=O)C1=CC[C@@H](c2ccccc2)N(S(=O)(=O)c2ccc(C)cc2)[C@H]1C = 1
• COc1ccc([Si](C)(C)[C@H]2[C@H](CC(=O)N3Cc4ccccc4C[C@H]3CO)O[C@@]3(C(=O)N(Cc4cccc(N5CCOC5=O)c4)c4ccccc43)[C@@H]2C)cc1 = 2
• CO[C@@H]1COC(=O)CC=C[C@@H](C)[C@H](OC)COC(=O)CC=C[C@H]1C = 2
• CC(C)(C)OC(=O)CC[C@@]1(C(=O)NCc2ccccc2)N=C(c2ccc(OCCCO)cc2)O[C@@H]1c1ccccc1 = 0
• C[N+](C)(C)CCCC[C@@H]1NC(=O)[C@H]2C[C@@H](C(=O)NCc3ccc(F)cc3)[C@@H](c3cccc(OCCO)c3)N2C1=O = 2
• COC(=O)[C@@]1(Cc2ccccc2)[C@H]2c3cc(C(=O)N4CCCC4)n(CCN4CNCC4=O)c3C[C@H]2CN1C(=O)c1ccccc1 = 1
• CC(C)[Si](OCC[C@H]1O[C@]2(C(=O)N(Cc3ccccc3)c3ccccc32)[C@@H](C)[C@@H]1[Si](C)(C)O)(C(C)C)C(C)C = 0
• COC(=O)C[C@H]1O[C@]2(C(=O)N(Cc3ccccc3)c3ccc(I)cc32)[C@@H](C)[C@@H]1[Si](C)(C)c1ccc(OC)cc1 = 1
• C[C@@H]1NC(=O)CC=C[C@@H](C)[C@@H]2C=C[C@H](O)[C@@H](COC(=O)[C@H](C)NC(=O)CC=C[C@@H](C)[C@@H]3C=C[C@H](O)[C@@H](COC1=O)O3)O2 = 0
• O=C1c2ccccc2[C@](Cc2ccccc2I)(C(=O)NCC(F)(F)F)[C@H](c2ccc(CO)cc2)N1Cc1ccccc1C(F)(F)F = 2
• CCCC[C@H]1OB(O)C[C@H]2C1=C(COC)C[C@H]1C(=O)N(Cc3ccccc3)C(=O)[C@H]12 = 0
• CO[C@H]1COC(=O)[C@@H](C)COC(=O)[C@H](Cc2ccccc2)NC(=O)CC=C[C@H]1C = 1
• O=C(N1CCCCC1)[C@@]1(CCS(=O)(=O)c2ccccc2)N=C(c2ccc(OCCCO)cc2)O[C@H]1c1ccccc1 = 0
